Target Under Test: Glutathione S-transferase omega-1 (Homo sapiens) (UniProt P78417)
Sequence (P78417 whole entry, looked up): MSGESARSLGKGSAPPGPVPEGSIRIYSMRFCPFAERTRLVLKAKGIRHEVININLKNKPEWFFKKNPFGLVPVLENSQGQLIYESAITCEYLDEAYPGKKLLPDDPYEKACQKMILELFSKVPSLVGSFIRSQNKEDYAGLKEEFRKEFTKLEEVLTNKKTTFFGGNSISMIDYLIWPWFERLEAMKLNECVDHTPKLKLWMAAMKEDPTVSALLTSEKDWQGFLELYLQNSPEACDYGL
Run Description: inhibitors of recombinant GSTO1, primary screen, counter-screen for RBBP9 inhibitor project, biochemical, fluorescence polarization (AID 1974);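 further: 0% = GSTO1-1 with DMSO and 100% = wells lacking GSTO1-1 enzyme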
Test Parameters: recombinant GSTO1, activity-based probe fluorescence polarization; at 5.96 µM
About 3,200 (1.1%) of roughly 300,000 compounds were called active.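 How the source made its calls: active means inhibition above the campaign mean inhibition plus 3 SD (cut at about 35% in these data); inactive means the rest.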 For the sample, actives were picked, then their nearest neighbours and some compounds at random.
Log the outcome using a class from 1 (yes) (active), 0 (no) (inactive)

Cc1cc(Cl)c(S(=O)(=O)N(C)C)cc1OCC(N)=O :: 0 (no)
COc1ccc(-c2csc3ncnc(N4CCN(S(=O)(=O)c5cccc(F)c5)CC4)c23)cc1 :: 0 (no)
COc1ccc(N(C(=O)c2cccnc2)S(=O)(=O)c2ccc3c(c2)n(C)c(=O)n3C)cc1 :: 0 (no)
CC1C(=O)Nc2ccccc2N1C(=O)c1ccc(F)cc1F (stereo not given) :: 1 (yes)
COc1ccc(N(C(=O)c2cccnc2)S(=O)(=O)c2ccc(OC)c(OC)c2)cc1 :: 0 (no)
O=C(NCCSc1ncc(-c2ccccc2)[nH]1)c1ccco1 :: 0 (no)
CCN(CC(=O)NCc1ccc(Cl)cc1)C(=O)CSc1ccccc1 :: 0 (no)
CNC(C)C#Cc1ccc2sc3cc(OC)c(OC)cc3c(=O)c2c1 (stereo not given) :: 0 (no)

Query :: Assay outcome for O=C(NCCC1CCCCN1S(=O)(=O)c1ccc(Cl)cc1)C(=O)NCc1ccco1 (stereo not given) : what was it?
Result :: 0 (no)

Query :: For O=C(c1cccnc1)N(c1cc2sc(=O)oc2c2ccccc12)S(=O)(=O)c1ccccc1 , which call appears in the assay record?
Result :: 1 (yes)

----------
Target Under Test: Glutathione S-transferase omega-1 (Homo sapiens) (UniProt P78417)
Run Description: inhibitors of recombinant GSTO1, primary screen, counter-screen for RBBP9 inhibitor project, biochemical, fluorescence polarization (AID 1974);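 further: 0% = GSTO1-1 with DMSO and 100% = wells lacking GSTO1-1 enzyme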
Test Parameters: recombinant GSTO1, activity-based probe fluorescence polarization; at 5.96 µM
Screen size: about 300,000 compounds; about 3,200 (1.1%) were called active.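 The calls were made as follows: active = inhibition above the campaign mean inhibition plus 3 SD (cut at about 35% in these data); inactive = the rest.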 What follows is part of a selection rich in actives, with near analogues and random picks from the rest.
Choose the fitting class; nothing outside True (active), False (inactive) is accepted.

Please review the following examples before continuing.
COc1ccc(C(C(=O)NC2CCCCC2)N(C(=O)c2snc(C(N)=O)c2N)c2ccccc2OC)cc1 (stereo not drawn) :: False
CC(C)(C)c1ccc(C(=O)NCCn2c(N)c(C#N)c3nc4ccccc4nc32)cc1 :: False
CC(C)Cn1c(N)c(C(=O)NCc2cccs2)c2nc3ccccc3nc21 :: True

Query :: Entry O=c1cc(CCl)nc2scc(-c3ccccc3)n12 : call = ?
Result :: True

Query :: How did this test come out for COc1ccc(C(CNC(=O)c2cccc(S(=O)(=O)Nc3ccccc3Cl)c2)N2CCOCC2)cc1 (stereo not drawn) ?
Result :: False

Query :: Kindly provide the recorded test outcome for the following compound: CCN(C(=O)COC(=O)c1sccc1C)c1c(N)n(Cc2ccccc2)c(=O)[nH]c1=O
Result :: False

Query :: Field: outcome | Entry: COC(=O)c1ccc(CSc2nncn2C)cc1
Result :: False

Query :: Record request — test call for CC1=CC(C)(C)Nc2ccc(OC(=O)C(Cc3ccccc3)N3C(=O)C4CCCCC4C3=O)cc21 (stereo not drawn)
Result :: False

Query :: Look up the recorded call for CCOC(=O)c1cnc(-c2ccccc2)nc1Oc1ccc(C)cc1 in this test.
Result :: False

Query :: Could you kindly confirm the outcome this assay logged for CCCNC(=O)c1c(N)n(-c2ccc(S(N)(=O)=O)cc2)c2nc3ccccc3nc12 ?
Result :: False

Query :: What did this assay record as the result for COc1cc(NC(=O)CSC(=S)N2CCCC2)c(OC)cc1Cl ?
Result :: False

Query :: Recorded test outcome, item O=C(CN1C(=O)C2C3CCC(C3)C2C1=O)Oc1ccc2ccccc2c1 (stereo not drawn)
Result :: False

Query :: // outcome(item) with item = COC(=O)c1ccc(CSc2nnc(NC(C)C)s2)cc1
Result :: False

Query :: What call does the record list for Brc1ccc(CSc2ccc(-c3ccco3)nn2)cc1 ?
Result :: False

Query :: Could you kindly confirm the outcome this assay logged for COc1ccc(C(CCN(Cc2ccc(OC)c(OC)c2)C(=O)CCl)c2ccccc2)cc1 (stereo not drawn) ?
Result :: True
